experiment: In vitro enzyme assay to detect hydrolysis of chlorophenol red-beta-D-[…] directly proportional to the number of Toxoplasma stably expressing beta-galactosidase; assay type: functional, organism-based, Toxoplasma gondii; design: scale not given: in the data most compounds retested in dose-response had high values; details: 50 µM
In all, about 85,000 compounds went through this assay and about 440 (0.52%) showed an effect of 50% or more. This excerpt belongs to a sample that is enriched for strong results.
QUANTITY NAME: Percent Effect (%)
One number for each entry, in %.

>  <COMPOUND>
CCOc1ncccc1C(=O)NCC1CCCN1CC (configuration not stated)

>  <Percent Effect (%)>
-0.459

$$$$
>  <COMPOUND>
O=C(NC1=NCCS1)c1cc2cc(F)ccc2s1

>  <Percent Effect (%)>
-6.521

$$$$
>  <COMPOUND>
NCC1(NS(=O)(=O)c2cccc3nonc23)CCCC1

>  <Percent Effect (%)>
-3.738

$$$$
>  <COMPOUND>
NCC1CCCN(c2ncccn2)C1 (configuration not stated)

>  <Percent Effect (%)>
3.495

$$$$

Would you mind listing Percent Effect for each of the following compounds?
1. CS(=O)(=O)c1cc(Cl)cc(CN)c1
2. COc1ncccc1C(=O)NCC(=O)N1CCCC1
3. Cn1ncc2c(NCc3ccccc3CO)ncnc21

Response:
[-21.93, -2.429, 2.537]

----------
test: In vitro enzyme assay to detect hydrolysis of chlorophenol red-beta-D-[…] directly proportional to the number of Toxoplasma stably expressing beta-galactosidase; assay type: functional, organism-based, Toxoplasma gondii; design: scale not given: in the data most compounds retested in dose-response had high values; settings: 10 µM
The campaign covered roughly 85,000 compounds. About 440 (0.52%) showed an effect of 50% or more. For the sample, strong results were picked, then their nearest neighbours and some compounds at random.
Consider the following molecules; for each one, report its Percent Effect.
Give bare numbers, in %.

Observe how each entry below is paired with its result.
>  <MOLECULE>
Cc1ccc(-c2cc(C(F)(F)F)nc(N3CCOCC3)n2)s1

>  <UNIT OF MEASUREMENT>
%

>  <Percent Effect>
-3.229

$$$$
>  <MOLECULE>
c1ccc(-c2noc(CN3CCOC(Cn4cccn4)C3)n2)nc1 (stereo unspecified)

>  <UNIT OF MEASUREMENT>
%

>  <Percent Effect>
4.093

$$$$
>  <MOLECULE>
Cc1c(-c2cc(C(F)(F)F)nc(N3CCC(N)CC3)n2)cnn1C

>  <UNIT OF MEASUREMENT>
%

>  <Percent Effect>
84.58

$$$$
>  <MOLECULE>
O=C(O)C1CCCN1c1nc(-c2ccc(Cl)c(Cl)c2)cc(C(F)(F)F)n1 (stereo unspecified)

>  <UNIT OF MEASUREMENT>
%

>  <Percent Effect>
13.78

$$$$
>  <MOLECULE>
Cc1noc(NC(=O)c2ccc(F)cc2)n1

>  <UNIT OF MEASUREMENT>
%

>  <Percent Effect>
-4.949

$$$$

Next molecule, Percent Effect to be filled in.
Query: Please report the recorded Percent Effect for `CCn1ncc(-c2cc(C(F)(F)F)nc(N3CCC(N)CC3)n2)c1C` .
Response: 74.85

----------
Kindly supply the reported Percent Effect values for the records listed here.
assay: In vitro enzyme assay to detect hydrolysis of chlorophenol red-beta-D-[…] directly proportional to the number of Toxoplasma stably expressing beta-galactosidase; assay type: functional, organism-based, Toxoplasma gondii; set-up: scale not given: in the data most compounds retested in dose-response had high values; conditions: 50 µM
The campaign covered roughly 85,000 compounds. About 440 (0.52%) showed an effect of 50% or more. Only a selection was taken, and strong results are over-represented in it overall.
Give bare numbers, in %.

>  <MOLECULE>
CC(=O)c1c(C)cccc1NCC(=O)N(C)C

>  <Percent Effect / %>
-19.59

$$$$
>  <MOLECULE>
O=C1NCCOc2ccc(Br)cc21

>  <Percent Effect / %>
-18.86

$$$$
>  <MOLECULE>
CCN(Cc1cccc(F)c1)C1CCS(=O)(=O)C1 (stereo not drawn)

>  <Percent Effect / %>
-4.951

$$$$
>  <MOLECULE>
CC(C)[C@H](N)C(=O)N1CCC(C2CCOCC2)CC1

>  <Percent Effect / %>
8.319

$$$$

For every item in the list below, what is its measured Percent Effect?
1. C=C(C)CNc1nc2nonc2nc1NCCOC
2. CS(=O)(=O)NCc1ccc(CN2CCCC2=O)cc1
3. CCCc1nc(C(=O)NCCc2cccnc2)cs1
4. CC(=O)NCCCS(=O)(=O)c1ncccc1Cl
5. Clc1cnn(CCN2CCN(C3CCNC3)CC2)c1 (stereo not drawn)
6. CC(=O)NCCCS(=O)(=O)c1ccc(C)cn1

Response:
1. 14.38
2. 69.78
3. -0.1814
4. 60.86
5. 12.09
6. -5.9

----------
assay: In vitro enzyme assay to detect hydrolysis of chlorophenol red-beta-D-[…] directly proportional to the number of Toxoplasma stably expressing beta-galactosidase; type: functional, organism-based, Toxoplasma gondii; set-up: scale not given: in the data most compounds retested in dose-response had high values; settings: 10 µM
Among all 85,000 compounds or so, about 440 (0.52%) showed an effect of 50% or more. The sample as a whole holds a higher share of strong results than the screen did.
QUANTITY NAME: Percent Effect (%)
Answers are plain numbers, in %.

>  <COMPOUND>
O=C(CC1CCCC1)N1C[C@H](OCc2ccncc2)[C@H]2OCCC[C@H]21.O=C(O)C(F)(F)F

>  <UNIT OF MEASUREMENT>
%

>  <Percent Effect>
-2.876

$$$$
>  <COMPOUND>
c1cc(-c2nn3c(CN4CCOCC4)nnc3s2)ccn1

>  <UNIT OF MEASUREMENT>
%

>  <Percent Effect>
60.13

$$$$
>  <COMPOUND>
CCn1c(NCc2ccccc2)nc2c(C)nn(C)c2c1=O

>  <UNIT OF MEASUREMENT>
%

>  <Percent Effect>
72.53

$$$$
>  <COMPOUND>
COc1ccc2[nH]cc(-c3ccnc(N4CCC(C)CC4)n3)c2c1

>  <UNIT OF MEASUREMENT>
%

>  <Percent Effect>
11.49

$$$$
>  <COMPOUND>
CCOc1ccc(CN2C(=O)CC(C)(C)C2=O)nc1

>  <UNIT OF MEASUREMENT>
%

>  <Percent Effect>
15.64

$$$$
>  <COMPOUND>
COc1ccc2[nH]cc(-c3ccnc(NC4CCCC4)n3)c2c1

>  <UNIT OF MEASUREMENT>
%

>  <Percent Effect>
56.3

$$$$
>  <COMPOUND>
Cc1nc(C2(O)CCCNCC2)sc1CCOc1ccc(F)cc1.Cl (configuration not stated)

>  <UNIT OF MEASUREMENT>
%

>  <Percent Effect>
11.11

$$$$
>  <COMPOUND>
Cc1cc(CN2CCCC2)cc(Oc2ccc3c(c2)CC(CN)O3)c1 (configuration not stated)

>  <UNIT OF MEASUREMENT>
%

>  <Percent Effect>
-8.923

$$$$

Please give Percent Effect for each item listed below.
1. Cc1ccoc1C(=O)NC1CCN(Cc2ccccc2F)CC1
2. CCc1noc(CC)c1CNC(=O)Nc1cccc([S+](C)[O-])c1 (configuration not stated)
3. Cc1ccoc1C(=O)NC1CCN(Cc2ccccc2C#N)CC1
4. Cn1cccc1C(=O)N1C[C@@H](OCc2ccncc2)[C@@H]2OCCC[C@@H]21.O=C(O)C(F)(F)F
5. CC1CCN(C(=O)CN2CC(c3nc(C4CC4)no3)C2)CC1.O=C(O)C(=O)O

Response:
1: -8.886; 2: 5.882; 3: -1.883; 4: 96.07; 5: -17.41

----------
experiment: In vitro enzyme assay to detect hydrolysis of chlorophenol red-beta-D-[…] directly proportional to the number of Toxoplasma stably expressing beta-galactosidase; assay type: functional, organism-based, Toxoplasma gondii; parameters: scale not given: in the data most compounds retested in dose-response had high values; conditions: 10 µM
Among all 85,000 compounds or so, about 440 (0.52%) showed an effect of 50% or more. Many of the other results were omitted from the sample, so strong results are more common in it than they were.
QUANTITY NAME: Percent Effect (%)
One number for each entry, in %.

Study these solved cases before continuing.
>  <COMPOUND>
COc1ccc(CNC(=O)C2=NN(c3ccc(C)cc3)C(=O)CN2)cc1

>  <Percent Effect / %>
-0.9855

$$$$
>  <COMPOUND>
Cc1csc(CN2CCC3(CC2)COC(COc2ccccn2)C3)n1 (centres undefined)

>  <Percent Effect / %>
-8.461

$$$$
>  <COMPOUND>
CC(=O)Nc1ncc(S(=O)(=O)Nc2cccc(O)c2)s1

>  <Percent Effect / %>
62.29

$$$$
>  <COMPOUND>
Cc1ccccc1-n1cnnc1SCCOCC1CCCO1 (centres undefined)

>  <Percent Effect / %>
-4.234

$$$$

Hey, quick one: what's Percent Effect for each of these?
1. COC(=O)c1cccc(NS(=O)(=O)c2cnc(NC(C)=O)s2)c1
2. CC(=O)Nc1ncc(S(=O)(=O)Nc2ccc3c(c2)OCCO3)s1
3. COc1ccc(C)cc1CNC(=O)C1=NN(c2ccccc2)C(=O)CN1
4. COc1ccc(OCCc2nnc(NC(C)=O)s2)cc1

Response:
1: -3.347; 2: 68.62; 3: 14.43; 4: -4.781

Values compiled from ChEMBL document CHEMBL3988442.
